- target: ATP-dependent Clp protease ATP-binding subunit ClpC1 (Mycobacterium tuberculosis, UniProt P9WPC9)
- Sequence (P9WPC9 whole entry, the tested form may be a part): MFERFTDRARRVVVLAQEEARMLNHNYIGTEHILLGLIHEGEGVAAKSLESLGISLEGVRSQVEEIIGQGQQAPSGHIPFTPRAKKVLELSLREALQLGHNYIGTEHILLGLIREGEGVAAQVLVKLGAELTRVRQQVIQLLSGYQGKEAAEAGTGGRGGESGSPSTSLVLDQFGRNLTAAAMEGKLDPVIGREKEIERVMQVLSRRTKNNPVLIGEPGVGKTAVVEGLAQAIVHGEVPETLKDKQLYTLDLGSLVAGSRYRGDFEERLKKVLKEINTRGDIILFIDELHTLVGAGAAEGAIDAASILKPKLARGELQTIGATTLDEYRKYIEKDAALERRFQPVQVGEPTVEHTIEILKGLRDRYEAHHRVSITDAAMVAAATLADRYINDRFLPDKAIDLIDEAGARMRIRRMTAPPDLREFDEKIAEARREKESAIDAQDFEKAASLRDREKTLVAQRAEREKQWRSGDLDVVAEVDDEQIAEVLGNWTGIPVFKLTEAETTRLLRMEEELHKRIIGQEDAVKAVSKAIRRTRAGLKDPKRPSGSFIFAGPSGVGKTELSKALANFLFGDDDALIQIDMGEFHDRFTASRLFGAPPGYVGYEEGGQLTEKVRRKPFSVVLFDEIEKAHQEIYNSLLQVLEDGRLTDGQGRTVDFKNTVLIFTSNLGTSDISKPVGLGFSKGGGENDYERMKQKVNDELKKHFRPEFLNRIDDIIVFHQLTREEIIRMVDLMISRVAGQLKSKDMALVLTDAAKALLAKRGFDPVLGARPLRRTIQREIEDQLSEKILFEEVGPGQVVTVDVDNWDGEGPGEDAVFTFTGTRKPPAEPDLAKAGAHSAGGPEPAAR
- assay.name: Binding affinity to recombinant Mycobacterium tuberculosis H37Rv N-terminal His6-tagged ClpC1 (1 to 145 residues) expressed in Escherichia coli BL21 cells by surface plasmon resonance analysis
Starred links: 1 amine or outer side, 2 acyl side, 3 side chain; linkers in the order of their positions; H or OH if unused. Non-standard residues stand in square brackets, D forms with d. Residues, ends and D or L forms follow the SMILES beside them. X3 = CC(C)([C@H](O)CCl)n1cc(C[C@H](N[*:1])C(=O)[*:2])c2ccccc21; Tyr(3-NO2) = N[C@@H](Cc1ccc(O)c([N+](=O)[O-])c1)C(=O)O; Gly(E-crotyl) = C/C=C/C[C@H](N)C(=O)O; NMeL = CN[C@@H](CC(C)C)C(=O)O

compound: C/C=C/C[C@@H]1NC(=O)[C@H](CC(C)C)N2C(=O)[C@H](CC(C)[C@H]2O)N(C)C(=O)[C@H](C)NC(=O)[C@H](Cc2ccc(O)c([N+](=O)[O-])c2)NC(=O)[C@H](CC(C)C)N(C)C(=O)[C@H](Cc2cn(C(C)(C)[C@H]3CO3)c3ccccc23)NC1=O (some centres not stated)
Kd, µM: 0.06
//
compound: C/C=C/C[C@@H]1NC(=O)[C@H](CC(C)C)NC(=O)[C@H](CC(C)C)N(C)C(=O)[C@H](C)NC(=O)[C@H](Cc2ccc(O)c([N+](=O)[O-])c2)NC(=O)[C@H](CC(C)C)N(C)C(=O)[C@H](Cc2cn(C(C)(C)[C@H](O)CCl)c3ccccc23)NC1=O (cyclo(A[NMeL]L[Gly(E-crotyl)][X3][NMeL][Tyr(3-NO2)]))
Kd, µM: 1.5

All figures here come from ChEMBL document CHEMBL4613246.
